# experiment.summary: NCI Yeast Anticancer Drug Screen. Data for the mlh1 rad18 strain (AID 175)
# test.conditions: S. cerevisiae mlh1 rad18 strain growth inhibition; at 50.0 µM (retest, dose inferred, filed as 5.0); hits give high values
Compounds without any hit were thinned out: in the full panel of roughly 79,000, 15% have a hit.
In this section, each of the compounds is paired with its reported growth inhibition.
reported.property: growth inhibition (%)

CCCC1c2ccc(O)cc2CC1c1ccc(O)cc1 (stereo unspecified) :: 99
C=C1CC[C@@H](Br)C(C)(C)[C@]12CCC(C)(O)C(Cl)C2 (stereo partly specified) :: 41
O=C(Nc1cccc(C(F)(F)F)c1)c1cc(Br)cc(Br)c1O :: 95
N#Cc1c(-c2ccc(Cl)cc2)c2c(n(C3OC(CO)C(O)C(O)C3O)c1=S)CCCC2 (stereo unspecified) :: 96
Oc1ccc(Cc2cccc(Br)c2)c(O)c1 :: 99
O=C(C[N+]12CN3CN(CN(C3)C1)C2)c1ccc(Cl)cc1Cl :: -26

====

In this section, each of the compounds is paired with its reported growth inhibition.
# experiment.summary: NCI Yeast Anticancer Drug Screen. Data for the rad50 strain (AID 155);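 also: 0% = growth of vehicle-only cultures of the same strain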
# test.conditions: S. cerevisiae rad50 strain growth inhibition; at 50.0 µM (retest, dose inferred, filed as 5.0); hits give high values
About 79,000 compounds went through this panel and 15% of them were active in at least one assay; those are over-represented in the sample as a whole.
reported.property: growth inhibition (%)

C/C(=N/NC(=S)N1CCCC1)c1cccc(/C(C)=N\NC(=S)N2CCCC2)n1 :: 12
CCCC[N-]CC(O)C[NH-].O=C(O)CC(=O)O.[Pt+2] (stereo not drawn) :: 6
Cc1nc(N)sc1N=Nc1ccc(Cl)cc1 :: 55
COC(=O)N1C2C=CC(=O)C(C=C2)N1C(=O)OC (stereo not drawn) :: 30
N#Cc1c(-c2ccc(Cl)cc2)c(-c2ccc(Cl)cc2)nn(CCOC(=O)CN)c1=O :: 94
Cc1[nH]nc(C(F)(F)F)c1N=NN1CCOCC1 :: 99
O=c1[nH]c2cc(Cl)ccc2nc1/C=C(\O)c1ccc(N2CCN(c3ccc(/C(O)=C/c4nc5ccc(Cl)cc5[nH]c4=O)cc3)CC2)cc1 :: 12
C=C1CC2(CCCC3(CC(=C)C(=O)O3)C2(C)C)OC1=O (stereo not drawn) :: 96
O=C(O)c1ccc(C(O)(c2ccccc2)c2ccccc2)cc1 :: 65
Oc1ccc(C2CCCCC2)c(O)c1 :: 42
CCc1ccc(/C=C/c2ccc([N+](=O)[O-])cc2)nc1 :: 68
COc1cc2c(cc1O)C1C(O)C(O)C=C3CCN(C2)C31 (stereo not drawn) :: 97
CCCC#CC(O)(C(=O)OC1CCN(C)CC1)C1CCCCC1 (stereo not drawn) :: 55
Oc1ccc(C(c2ccccc2)(c2ccccc2)c2ccccc2)cc1O :: 99
CNC(=O)OCCC(OC(=O)NC)C1CCC2C3CC=C4CC(OC(=O)NC)CCC4(C)C3CCC12C (stereo not drawn) :: 94
CC(C)(C)C(OC(=O)Nc1ccccc1)C(C)(C)C :: 29
O=C(O)c1ccccc1/C=N/O :: -4
CCCCCCCCCCCCCCSC(=N)N :: 95
CSc1cc(-c2cc3ccccc3o2)oc(=O)c1C#N :: -8
O=C1Oc2ccccc2C(=O)/C1=C/N1C(=O)/C(=C/c2ccccc2)NC1=S :: 31
CC(=O)NNc1nc(C)c(C(=O)NNC(=O)C(=O)Nc2ccc(Cl)cc2Cl)s1 :: 82
CCN(CC)c1c(C(=O)/C=C/c2ccc(OC)cc2)c(-c2ccccc2)nn(C)c1=O :: 17
CCCN(CCC)c1ccc(/C=C/c2ccnc3ccccc23)cc1 :: 74
CCC(C)SC1SCC2C(=O)N(C)C3(CC3C)C(=O)OCC(NC(=O)c3nc4ccccc4cc3O)C(=O)NC(C)C(=O)N(C)C1C(=O)N(C)C1(CC1C)C(=O)OCC(NC(=O)c1nc3ccccc3cc1O)C(=O)NC(C)C(=O)N2C (stereo not drawn) :: 89
O=[N+]([O-])c1cc([N+](=O)[O-])c2ccccc2c1O :: 90
NC(=S)Nc1c(Br)cc(Br)cc1Br :: 91
Oc1ccc(Cl)cc1-c1ccccc1 :: 86
COc1ccc(N=C2C(=S)N(c3ccc(OC)cc3)/C(=N/S(=O)(=O)c3ccccc3)N2c2ccccc2)cc1 :: 18
CC(C)(C)Oc1ccc(CC(NC(=O)OCC2c3ccccc3-c3ccccc32)C(=O)O)cc1 (stereo not drawn) :: 95
CN(C)C(=S)SC1(CN2CCOCC2)COc2c(Cl)cc(Cl)cc2C1=O (stereo not drawn) :: 97
O=C(CC[P+](c1ccccc1)(c1ccccc1)c1ccccc1)c1ccccc1 :: 78
CC(CCC(=O)O)(Nc1ccc([N+](=O)[O-])cc1[N+](=O)[O-])C(=O)O (stereo not drawn) :: 99
COc1cccc(NC(=S)NC(Cc2ccccc2)c2ccccc2)c1 (stereo not drawn) :: 88
Cc1ccc(C2CC(c3cccc([N+](=O)[O-])c3)=Nc3ccccc3S2)cc1 (stereo not drawn) :: 19
O=S1(=O)c2ccccc2C(Br)C1Br (stereo not drawn) :: 98
CC(=O)c1nc2ccccc2n1C(C)C(=O)c1ccccc1 (stereo not drawn) :: 37
CCCCCCCCCCCC(=O)OCCOP(=O)(OCC)OCC :: 91
c1cc[c]([Sn]([CH]2c3ccccc3-c3ccccc32)([CH]2c3ccccc3-c3ccccc32)[CH]2c3ccccc3-c3ccccc32)cc1 :: 0
COc1ccc(CCC2(C)OCCC(C)O2)cc1 (stereo not drawn) :: 92
CC1(C)OC2C(COC(c3ccccc3)(c3ccccc3)c3ccccc3)OC(n3cnc4c(N)ncnc43)C2O1 (stereo not drawn) :: 80
CN(C)CCC[Si]1(C)c2ccccc2CCc2ccccc21 :: 16
COc1cccc2c1C(=O)c1c(O)c3c(c(O)c1C2=O)C[C@@](O)(C(C)=O)C[C@@H]3OC1CC(N(CCO)Cc2ccccc2)C(O)C(C)O1 (stereo partly drawn) :: 99
C=C(CN1CCOCC1)C(=O)c1ccccc1 :: 66

====

# experiment.summary: NCI Yeast Anticancer Drug Screen. Data for the mlh1 rad18 strain (AID 175)
# test.conditions: S. cerevisiae mlh1 rad18 strain growth inhibition; at 5.0 µM (retest, dose inferred, filed as 0.5); hits give high values
The panel holds about 79,000 compounds, 15% with a hit somewhere; the sample as a whole holds those more often. Active and inactive are the calls of the source. Cut-off read from the data, not from the text of the source: active = growth inhibition above about 70%; inactive = the rest.
reported.property: growth inhibition

COc1cccc2c1C(=O)c1c(O)c3c(c(O)c1C2=O)C[C@@](O)(C(C)=O)C[C@@H]3OC1CC(N(CCO)Cc2ccccc2)C(O)C(C)O1 (some centres undefined) :: 95% (active)
CC(=O)Nc1n[n+]([O-])c2cc(C)ccc2[n+]1[O-] :: 97% (active)
Cc1cc(C)nc(NS(=O)(=O)c2ccc(NC(=O)c3cccnc3Nc3cccc(Cl)c3)cc2)n1 :: -1% (inactive)
CCCCCCCCCCCCCCCCCC[n+]1cccc(C(=O)c2ccccc2)c1 :: 98% (active)
CC[C@@H](C(=O)[C@@H](C)[C@@H](O)[C@H](C)CCc1ccc(C)c(O)c1C(=O)O)[C@H]1O[C@](CC)([C@H]2CC[C@](O)(CC)[C@H](C)O2)C[C@@H]1C :: 35% (inactive)
Cc1ccc(C(=O)N2CCN(C(=O)c3ccc(C)cc3)c3ccccc32)cc1 :: -26% (inactive)
CCc1nc(N)nc(N)c1-c1ccc(N2CCCCC2)c([N+](=O)[O-])c1 :: -1% (inactive)
Nc1ccc2nc(Nc3ccc(F)cc3)cnc2c1 :: 7% (inactive)
Cn1c(=S)c2[nH]c(SCCN3CCCC3)nc2n(C)c1=O :: 37% (inactive)

====

# experiment.summary: NCI Yeast Anticancer Drug Screen. Data for the sgs1 mgt1 strain (AID 161);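 also: 0% = growth of cultures given vehicle only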
# test.conditions: S. cerevisiae sgs1 mgt1 strain, at 5.0 µM (retest, dose inferred, filed as 0.5)
The panel holds about 79,000 compounds, 15% with a hit somewhere; the sample as a whole holds those more often. Calls of active or inactive are those of the source. Cut-off read from the data, not from the text of the source: active = growth inhibition above about 70%; inactive = the rest.
Labels: T (active), F (inactive)

CCOC(=O)C(=Cc1ccccc1Br)C(=O)OCC :: F
Cc1cc(NCCCCCCCCCC[n+]2c(C)cc(N)c3ccccc32)c2ccccc2n1 :: T
COc1ccccc1/C=C1\Sc2scc(-c3ccc(O)c(O)c3)[n+]2C1=O :: F
O=C1C(=O)c2ccccc2C=C1C1CCCCC1 :: F
COC(=O)C1CCC(=O)N1C(c1ccc(OC)cc1)c1cc(OC)c(OC)c(OC)c1 (configuration not stated) :: F
CC(=O)NC1CCCCC1CC1CCCCC1 (configuration not stated) :: F
CC(C)(C)c1cc2c3c(c1)Oc1cc(C(C)(C)C)cc4c1C3(O)c1c(cc(C(C)(C)C)cc1O4)O2 :: F
O=C(CC(=O)c1ccc(O)cc1)c1ccccc1 :: F
CCCCCCCCCCCCSCCCN :: F
CCCCCCCCCCCCCC(N)c1ccc(C)cc1 (configuration not stated) :: T
Clc1ccc(SSN2CCCCC2)cc1 :: F
CCN(CC)CCCC(C)Nc1c2ccccc2nc2c(C)cc(Br)cc12 (configuration not stated) :: F
